Reported values of Parent ionizable lipid remaining in liver, Average for individual entries
EXPERIMENT SUMMARY: Parent ionizable lipid remaining in liver at 24 h after EGFP mRNA LNP (LC-MS)
Assay type: in vivo
PROTOCOL CONDITIONS: Table 28; 24 h after IV 0.5 mg/kg EGFP mRNA LNP, female BALB/c mice (n = 4)
Protocol: Liver tissues were treated with PBS and homogenized with a FastPrep machine, 3 cycles of 5 m/s×15 s. Homogenates from the PBS-treated control animals was pooled and used for standard curve preparation. Samples were extracted into a deep well plate with 250 μL of an internal suitability standard. Plates were centrifuged for 15 min at 4° C. and 2000 rpm. […] Quantitation of the ionizable lipid was by MS/MS against a calibration curve spiked into appropriately matched blank matrix. […]
MEASURED ENDPOINT: Parent ionizable lipid remaining in liver, Average (nmol/g liver)

>>> df
                                   compound  numeric_result
0  CCCCCCCCCCC(CCCCCCC(=O)OCCC(CCCCCC)CCCCCC)N(CCCCCCCCCC)C(=O)CCCCN1CCCC1 (stereo not shown)           13.37
1  CCCCCCCCCCC(CCCCCCC(=O)OCCC(CCCCC)CCCCC)N(CCCCCCCCCC)C(=O)CCCCN1CCCC1 (stereo not shown)            4.32
2  CCCCCCCCCCC(CCCCCCC(=O)OCCC(CCCCCCC)CCCCCCC)N(CCCCCCCCCC)C(=O)CCCCN1CCCC1 (stereo not shown)           18.58
3  CCCCC/C=C\CCCC(CCC/C=C\CCCCC)C(CCC/C=C\CCCCC)OC(=O)CCCCN(C)C (stereo not shown) [Compound 13-B43, reference compound]           38.48

---

EXPERIMENT SUMMARY: Particle characteristics of LNPs containing luciferase mRNA and novel ionizable lipids
Type: physicochemical
PROTOCOL CONDITIONS: Table 3; luciferase mRNA LNP 1.6:54.6:32.8:10.9
MEASURED ENDPOINT: Final Product % EE (%)

                                    compound   measured_endpoint  readout_unit  numeric_result
 0  CCCCCCCCCCC(CCCCCC(=O)OCC(CCCCCC)CCCCCCCC)N(CCCCCCCCCC)C(=O)CCCN(C)C (stereo not drawn)  Final Product % EE             %              99
 1  CCCCC/C=C\CCCC(CCC/C=C\CCCCC)=NNC(=O)CC(CCCCCCCCC)N(CCCN(C)C)C(=O)C(CCCCCC)CCCCCCCC (stereo not drawn)  Final Product % EE             %              80
 2  CCCCCCCCCCN(C(=O)CCCN(C)C)C(CCCCCCCCC)CC(=O)OCC(CCCCCC)CCCCCCCC (stereo not drawn)  Final Product % EE             %              99
 3  CCCCCCCCCCCCCOC(=O)CCCCC(CCCCCCCCCC)N(CCN(C)C)C(=O)CCCCC(=O)OCC(CCCC)CCCCCC (stereo not drawn)  Final Product % EE             %              97
 4  CCCCC/C=C\CCCC(CCC/C=C\CCCCC)C(CCC/C=C\CCCCC)OC(=O)CCCCN(C)C (stereo not drawn) [Compound 13-B43, reference compound]  Final Product % EE             %              99
 5  CCCCCCCCCCC(CCCCC(=O)OCc1cc(CCCCCC)cc(CCCCCC)c1)N(CCCN(C)C)C(=O)CCCCCCCCC (stereo not drawn)  Final Product % EE             %              99
 6  CCCCC/C=C\CCCN(CCC/C=C\CCCCC)NC(=O)CC(CCCCCCCCC)N(CCCN(C)C)C(=O)CCCCCCCCC (stereo not drawn)  Final Product % EE             %              97
 7  CCCCCCCCCCCCCOC(=O)CCCCC(CCCCCCCCCC)N(CCN(C)C)C(=O)CCCCCCC(=O)OCC(CCCC)CCCCCC (stereo not drawn)  Final Product % EE             %              96
 8  CCCCCCCCCCCCC(=O)N(CCCN(C)C)C(CCCCCCCCCC)CCCCC(=O)OCc1cc(CCCCCC)cc(CCCCCC)c1 (stereo not drawn)  Final Product % EE             %              99
 9  CCCCCCCCCCC(CCCCC(=O)OCc1cc(CCCCCC)cc(CCCCCC)c1)N(CCCN(C)C)C(=O)C(CCCCCC)CCCCCCCC (stereo not drawn)  Final Product % EE             %              98
10  CCCCC/C=C\CCCC(CCC/C=C\CCCCC)NNC(=O)CC(CCCCCCCCC)N(CCCN(C)C)C(=O)CCCCCCCCC (stereo not drawn)  Final Product % EE             %              99
11  CCCCCCCCCCC(CCCCCC(=O)OCC(CCCCCC)CCCCCCCC)N(CCCCCCCCCC)C(=O)CCCCN(C)C (stereo not drawn)  Final Product % EE             %              99

From: patent US20250332112A1
